Parameter pIC50, tested on HIV protease (Human immunodeficiency virus type 1 group M subtype B), listed per item.
pIC50: −log10 of the molar value.
Attribute measured: pIC50

INSERT INTO assay_data (smiles_code, attribute_measured, reported_value) VALUES
  ('COc1ccc(S(=O)(=O)N(CC(C)C)C[C@@H](O)[C@H](Cc2ccccc2)NC(=O)[C@H](C)CS(=O)(=O)NCc2ccccc2)cc1', 'pIC50', 8.52),
  ('CC(C)CN(C[C@@H](O)[C@H](Cc1ccccc1)NC(=O)[C@H](C)CS(=O)(=O)N1CCN(Cc2ccccn2)CC1)S(=O)(=O)c1ccc2c(c1)OCO2', 'pIC50', 8.00),
  ('CC(C)CN(C[C@@H](O)[C@H](Cc1ccccc1)NC(=O)[C@H](C)CS(=O)(=O)N1CCN(Cc2ccccc2)CC1)S(=O)(=O)c1ccc2c(c1)OCO2', 'pIC50', 8.22),
  ('COc1ccc(S(=O)(=O)N(CC(C)C)C[C@@H](O)[C@H](Cc2ccccc2)NC(=O)[C@H](C)CS(=O)(=O)N2CCN(C)CC2)cc1', 'pIC50', 8.10),
  ('COc1ccc(S(=O)(=O)N(CC(C)C)C[C@@H](O)[C@H](Cc2ccccc2)NC(=O)[C@H](C)CS(=O)(=O)N(Cc2ccccc2)C(c2ccccc2)c2ccccc2)cc1', 'pIC50', 8.40),
  ('COc1ccc(S(=O)(=O)N(CC(C)C)C[C@@H](O)[C@H](Cc2ccccc2)NC(=O)[C@H](C)CS(N)(=O)=O)cc1', 'pIC50', 8.22),
  ('CC(C)CN(C[C@@H](O)[C@H](Cc1ccccc1)NC(=O)[C@H](C)CS(=O)(=O)N1CCCC1)S(=O)(=O)c1ccc2c(c1)OCO2', 'pIC50', 8.22),
  ('CC(C)CN(C[C@@H](O)[C@H](Cc1ccccc1)NC(=O)[C@H](C)CS(=O)(=O)N1CCN(Cc2ccncc2)CC1)S(=O)(=O)c1ccc2c(c1)OCO2', 'pIC50', 8.05),
  ('CC(C)CN(C[C@@H](O)[C@H](Cc1ccccc1)NC(=O)[C@H](C)CS(=O)(=O)N1CCNCC1)S(=O)(=O)c1ccc2c(c1)OCO2', 'pIC50', 8.05),
  ('CC(C)CN(C[C@@H](O)[C@H](Cc1ccccc1)NC(=O)[C@H](C)CS(=O)(=O)N(C)c1ccccc1)S(=O)(=O)c1ccc2c(c1)OCO2', 'pIC50', 8.40),
  ('CC(C)CN(C[C@@H](O)[C@H](Cc1ccccc1)NC(=O)[C@H](C)CS(=O)(=O)N(C)Cc1ccccc1)S(=O)(=O)c1ccc2c(c1)OCO2', 'pIC50', 8.40),
  ('COc1ccc(S(=O)(=O)N(CC(C)C)C[C@@H](O)[C@H](Cc2ccccc2)NC(=O)[C@H](C)CS(=O)(=O)N2CCOCC2)cc1', 'pIC50', 8.00);

====

Parameter pIC50, tested on HIV protease (Human immunodeficiency virus type 1 group M subtype B), listed per item.
pIC50: −log10 of the molar value.
Attribute measured: pIC50

INSERT INTO results (smiles_code, attribute_measured, reported_value) VALUES
  ('CC(C)CN(C[C@@H](O)[C@H](Cc1ccccc1)NC(=O)[C@H](C)CS(=O)(=O)N1CCN(Cc2cccnc2)CC1)S(=O)(=O)c1ccc2c(c1)OCO2', 'pIC50', 8.05),
  ('COc1ccc(S(=O)(=O)N(CC(C)C)C[C@@H](O)[C@H](Cc2ccccc2)NC(=O)[C@H](C)CS(=O)(=O)N2CCCCC2)cc1', 'pIC50', 7.89),
  ('COc1ccc(S(=O)(=O)N(CC(C)C)C[C@@H](O)[C@H](Cc2ccccc2)NC(=O)[C@H](C)CS(=O)(=O)N(C)C)cc1', 'pIC50', 8.40);
